# System: NCI-H2405;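 further: growth inhibition of the human cell line, read out with a cell viability assay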
# protocolText: cells
# Format: functional, cell-based, Homo sapiens
# statedConditions: nci-h2405
# Description: SANGER: Inhibition of human NCI-H2405 cell growth in a cell viability assay.
measurementType: IC50

Prompt line: Request the reported IC50 associated with Cc1cc([C@@H](C)Nc2ccccc2C(=O)O)c2nc(N3CCOCC3)cc(=O)n2c1 [AZD-6482]
Response line: > 5.12 µM

---

# Test system: COLO-678
# protocolText: cells
# Type: functional, cell-based, Homo sapiens
# statedConditions: colo-678
# Description: SANGER: Inhibition of human COLO-678 cell growth in a cell viability assay.
measurementType: IC50

Prompt line: Request the reported IC50 associated with Cc1cc([C@@H](C)Nc2ccccc2C(=O)O)c2nc(N3CCOCC3)cc(=O)n2c1
Response line: > 5.12 µM
